The following compounds are listed with their measured IC50 values.
Molecular target: full-length SARM1 (FL-SARM1) (Homo sapiens)
Assay: FL-SARM1 cellular lysate assay (NAD/NADH-Glo detection of remaining NAD+, NMN-activated)
Settings: Activity (μM) (IC50), 11 point curve
MEASURED_METRIC: IC50

COMPOUND | RESULT
Cc1ccc(NC(=O)N2C3CCC2c2cnccc23)cc1-c1ccccn1 (centres unmarked) [Example 26] | 1.3 µM
Cc1ccc(NC(=O)N2C3C[C@@H](C)C[C@H]2C3)cc1-c1cc(F)ccn1 [Example 224] | 0.04 µM
Cc1ccc(NC(=O)N2C3CCCC2C3)cc1-c1ncc(Cl)cn1 [Example 252] | 0.5 µM
Cc1nnc(C2CCCN2C(=O)Nc2ccc(C)c(-c3ccccn3)c2)o1 (racemic) [Example 87] | 17 µM
Cc1ccc(NC(=O)N2CC3CC(C)C2C3)cc1-c1ccccn1 (single isomer, unassigned) [Example 12] | 2 µM

* * *

Target: UniProt:Q6SZW1
Test: FL-SARM1 cellular lysate assay (NAD/NADH-Glo detection of remaining NAD+, NMN-activated)
Settings: Activity (μM) (IC50), 11 point curve
Binary call on IC50 with cut-off 3 µM: strictly below means MET, and equality or higher means NOT MET.

COMPOUND | LABEL_VALUE
Cc1ccc(NC(=O)N2C3CCCC2C3)cc1-c1cnccn1 [Example 53] | MET
Cc1ccc(NC(=O)[C@@H]2CC2(F)F)cc1-c1ccc(C(F)(F)F)cn1 [Example 154] | NOT MET
Cc1ccc(NC(=O)N2C3C[C@H](O)C[C@H]2C3)cc1-c1ccccn1 [Example 39] | NOT MET
Cc1ccc(NC(=O)[C@H]2C[C@H]3C[C@H]3N2c2ccncn2)cc1-c1ncc(F)cn1 [Example 265] | MET
Cc1ccc(NC(=O)[C@H]2C[C@H]3C[C@H]3N2c2ncccn2)cc1-c1ncc(F)cn1 [Example 267] | NOT MET
Cc1cccc(-c2cc(NC(=O)[C@@H]3CC3(F)F)ccc2C)n1 [Example 163] | NOT MET
CC[C@H]1C[C@H]1C(=O)Nc1ccc(C)c(-c2ccccn2)c1 (single isomer, unassigned) [Example 109] | MET
Cc1ccc(NC(=O)N2C3CCCC2C3)cc1-c1cc(C(F)(F)F)cnn1 [Example 66] | MET
C[C@@H]1CC2C[C@H](C1)N2C(=O)Nc1ccc(Br)c(-c2nccnn2)c1 [Example 315] | MET
Cc1ccc(NC(=O)N2C3CCCC2C3)cc1-c1cccnn1 [Example 54] | MET
COCC1COc2ccccc2CN1C(=O)Nc1ccc(C)c(-c2ncc(F)cn2)c1 (racemic) [Example 309] | MET
Cc1cc(F)c(NC(=O)N2C3CCCC2C3)cc1-c1cc(Cl)cnn1 [Example 247] | MET
Cc1ccc(NC(=O)[C@@H]2CC2(F)F)cc1-c1cccc(C#N)n1 [Example 159] | NOT MET
Cc1ccc(NC(=O)N2C[C@@H]3CCC[C@@H]32)cc1-c1ncc(F)cn1 (racemic) [Example 222] | NOT MET
Cc1ccc(NC(=O)N2[C@@H]3C[C@@H](C)C[C@H]2C3)cc1-c1cncc(C#N)n1 [Example 238] | MET
O=C(Nc1ccc(OC(F)(F)F)c(-c2ccccn2)c1)N1C2CCCC1C2 [Example 59] | MET
Cc1ccc(NC(=O)N2C3CCCC2C3)cc1-c1ccccn1 [Example 17] | MET

* * *

Target: full-length SARM1 (FL-SARM1) (Homo sapiens)
Assay: FL-SARM1 cellular lysate assay (NAD/NADH-Glo detection of remaining NAD+, NMN-activated)
Conditions: Activity (IC50 class), 11 point curve
pIC50: −log10 of the molar value.
MEASURED_METRIC: pIC50

MOLECULE | EXPERIMENTAL_SYSTEM | MEASURED_METRIC | RESULT
Cc1cc(F)c(NC(=O)[C@@H]2CC2(F)F)cc1-c1ccccn1 (stereo in doubt) [Example 143] | full-length SARM1 (FL-SARM1) (Homo sapiens) | pIC50 | 5.00 to 6.00
Cc1ccc(NC(=O)N2C3CCCC2C3)cc1-c1ncccc1C1CC1 [Example 32] | full-length SARM1 (FL-SARM1) (Homo sapiens) | pIC50 | 5.00 to 6.00
Cc1ccc(NC(=O)[C@@H]2[C@@H]3CC[C@H]2N(CC(F)(F)F)C3)cc1-c1ccccn1 (single isomer, unassigned) [Example 104] | full-length SARM1 (FL-SARM1) (Homo sapiens) | pIC50 | 5.00 to 6.00
Cc1cc(F)c(NC(=O)N2C3CCCC2C3)cc1-c1ncncn1 [Example 181] | full-length SARM1 (FL-SARM1) (Homo sapiens) | pIC50 | 5.00 to 6.00
Cc1ccc(NC(=O)C2CCC2(F)F)cc1-c1ccccn1 (racemic) [Example 111] | full-length SARM1 (FL-SARM1) (Homo sapiens) | pIC50 | 5.00 to 6.00
Cc1cccc(-c2cc(NC(=O)[C@@H]3CC3(F)F)ccc2C)n1 [Example 163] | full-length SARM1 (FL-SARM1) (Homo sapiens) | pIC50 | < 5.00
COC(=O)N1C[C@@H]2C[C@H]1CN2C(=O)Nc1ccc(C)c(-c2ccccn2)c1 [Example 1] | full-length SARM1 (FL-SARM1) (Homo sapiens) | pIC50 | < 5.00
Cc1ccc(NC(=O)[C@H]2C[C@@H]3C[C@@H]3N2c2ncccn2)cc1-c1ncc(F)cn1 [Example 269] | full-length SARM1 (FL-SARM1) (Homo sapiens) | pIC50 | < 5.00
Cc1cc(F)c(NC(=O)N2C3CCCC2C3)cc1-c1nccnn1 [Example 246] | full-length SARM1 (FL-SARM1) (Homo sapiens) | pIC50 | 5.00 to 6.00
CSc1ncc(N2[C@@H](C(=O)Nc3ccc(C)c(-c4ncc(F)cn4)c3)C[C@H]3C[C@H]32)nn1 [Example 172] | full-length SARM1 (FL-SARM1) (Homo sapiens) | pIC50 | 5.00 to 6.00
CC(=O)N1C[C@H](c2ccccc2)C[C@@H]1C(=O)Nc1ccc(C)c(-c2ncc(F)cn2)c1 [Example 321] | full-length SARM1 (FL-SARM1) (Homo sapiens) | pIC50 | < 5.00
Cc1ccc(NC(=O)N2CCCC2c2ccnn2C)cc1-c1ccccn1 (racemic) [Example 89] | full-length SARM1 (FL-SARM1) (Homo sapiens) | pIC50 | < 5.00
O=C(Nc1ccc(C(F)(F)F)c(-c2ccc(F)cn2)c1)N1C2CCC1c1ccccc12 [Example 57] | full-length SARM1 (FL-SARM1) (Homo sapiens) | pIC50 | 5.00 to 6.00
Cc1ccc(NC(=O)[C@H]2[C@@H]3CC[C@@H](C3)N2c2ncccn2)cc1-c1ncc(F)cn1 [Example 322] | full-length SARM1 (FL-SARM1) (Homo sapiens) | pIC50 | < 5.00
COCC1COc2ccccc2CN1C(=O)Nc1ccc(C)c(-c2ncc(F)cn2)c1 (racemic) [Example 309] | full-length SARM1 (FL-SARM1) (Homo sapiens) | pIC50 | 5.00 to 6.00
Cc1ccc(NC(=O)CC2CCC2)cc1-c1cnccn1 [Example 166] | full-length SARM1 (FL-SARM1) (Homo sapiens) | pIC50 | < 5.00
O=C(Nc1ccc(C2CC2)c(-c2ccccn2)c1)N1C2CCCC1C2 [Example 34] | full-length SARM1 (FL-SARM1) (Homo sapiens) | pIC50 | 5.00 to 6.00

* * *

Target: UniProt Q6SZW1
Sequence (Q6SZW1 28-724): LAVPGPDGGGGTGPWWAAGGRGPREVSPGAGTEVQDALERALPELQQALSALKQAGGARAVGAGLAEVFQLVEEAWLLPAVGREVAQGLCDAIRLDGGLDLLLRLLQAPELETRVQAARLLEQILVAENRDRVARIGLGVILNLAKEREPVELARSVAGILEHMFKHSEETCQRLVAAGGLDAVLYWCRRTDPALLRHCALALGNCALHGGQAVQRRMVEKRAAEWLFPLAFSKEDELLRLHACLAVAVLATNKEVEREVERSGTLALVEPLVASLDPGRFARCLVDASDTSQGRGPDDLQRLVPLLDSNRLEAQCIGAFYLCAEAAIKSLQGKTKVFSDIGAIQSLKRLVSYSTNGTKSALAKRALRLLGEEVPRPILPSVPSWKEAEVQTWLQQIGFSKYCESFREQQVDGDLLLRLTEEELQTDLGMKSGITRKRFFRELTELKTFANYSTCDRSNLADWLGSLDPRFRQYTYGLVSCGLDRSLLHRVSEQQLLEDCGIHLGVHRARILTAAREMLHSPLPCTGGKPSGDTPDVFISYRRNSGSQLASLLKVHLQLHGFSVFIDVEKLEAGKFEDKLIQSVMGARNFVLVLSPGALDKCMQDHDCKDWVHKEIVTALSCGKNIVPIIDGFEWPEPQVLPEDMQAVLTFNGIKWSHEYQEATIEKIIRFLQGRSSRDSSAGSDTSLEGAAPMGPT
Assay: FL-SARM1 cellular lysate assay (NAD/NADH-Glo detection of remaining NAD+, NMN-activated)
Details: Activity (IC50 class), 11 point curve
MEASURED_METRIC: IC50

MOLECULE | MEASURED_METRIC | RESULT
Cc1ccc(NC(=O)C2(O)CCCC2)cc1-c1ccccn1 | IC50 | > 10 µM
Cc1ccc(NC(=O)[C@@H]2C[C@@H]3[C@H](C2)C3(F)F)cc1-c1cccnn1 | IC50 | > 10 µM
Cc1ccc(NC(=O)C2COC(C)(C)CN2c2ncccn2)cc1-c1ncccn1 (single isomer, unassigned) [Example 207] | IC50 | > 10 µM
Cc1ccc(NC(=O)N2CC(C3CC3)C2)cc1-c1ccccn1 | IC50 | 1 to 10 µM
Cc1ccc(NC(=O)[C@H]2CC[C@@H](C)N2c2ccc(C#N)cn2)cc1-c1ncc(F)cn1 | IC50 | 1 to 10 µM
O=C(Nc1ccc(C(F)(F)F)c(-c2ccccn2)c1)[C@@H]1CC1(F)F | IC50 | 1 to 10 µM
Cc1ccc(NC(=O)N2C3C[C@H](O)C[C@H]2C3)cc1-c1ccccn1 | IC50 | 1 to 10 µM
Cc1cc(NC(=O)N2C3CCCC2C3)cc(-c2ccccn2)c1C | IC50 | > 10 µM
